- target_or_system: MAGL (Mus musculus, UniProt O35678)
- assay_details: In vitro competitive activity-based protein profiling, MAGL, mouse
- cond: read-out: MAGL % inh. 1 μM (mouse)
// inhibition at 1 µM lookup, one value per entry

Field: example entries. Status: answers known.
{"molecule": "CN(Cc1ccc(C(F)(F)F)c(N2CCCC2)c1)C1(C)CCN(C(=O)n2ccc(C(=O)O)n2)CC1", "result": "> 75%"}
{"molecule": "C[C@@H]1CN(Cc2cccc(Oc3cc(C(F)(F)F)ccn3)c2)CCN1C(=O)n1ccc(C(=O)O)n1", "result": "> 75%"}
{"molecule": "Cc1cn(C(=O)N2CCN(Cc3cccc(Oc4ccc(Cl)cc4)c3)CC2)nc1C(=O)O", "result": "> 75%"}
{"molecule": "O=C(O)c1ccn(C(=O)N2CCC3(CCN(Cc4cccc(-c5ccccc5)c4)C3)CC2)n1", "result": "> 75%"}
{"molecule": "CN(Cc1cccc(C(F)(F)F)c1N1CCCC1)C1(C)CCN(C(=O)n2ccc(C(=O)O)n2)CC1", "result": "> 75%"}

stdin: Fill in the blank: the reported inhibition at 1 µM of `O=C(O)c1ccn(C(=O)N2CCC3(CCCN3C(=O)c3ccc(C(F)(F)F)cc3N3CCCC3)CC2)n1` is ____.
stdout: > 75%

stdin: Fill in the blank: the reported inhibition at 1 µM of `O=C(O)c1ccn(C(=O)N2CCC3(CCN(Cc4ccc(C(F)(F)F)cc4N4CCC(F)CC4)CC3)C2)n1` is ____.
stdout: > 75%

stdin: Fill in the blank: the reported inhibition at 1 µM of CNC(=O)c1ccn(C(=O)N2CCC3(CCN(Cc4cc(Cl)cc(C(F)(F)F)c4)C3)C2)n1 (stereo not drawn) is ____.
stdout: > 75%

stdin: Fill in the blank: the reported inhibition at 1 µM of `O=C(O)c1ccn(C(=O)N2CCN(Cc3ccc(C(F)(F)F)c(N4CCCC4)c3)CC2)n1` is ____.
stdout: > 75%

stdin: Fill in the blank: the reported inhibition at 1 µM of `O=C(O)c1nn(C(=O)N2CCN(Cc3cccc(Oc4cc(C(F)(F)F)ccn4)c3)CC2)cc1Cl` is ____.
stdout: > 75%

stdin: Fill in the blank: the reported inhibition at 1 µM of `Cc1ccc(CN2CCC3(CCN(C(=O)n4ccc(C(=O)O)n4)CC3)C2)cc1Cl` is ____.
stdout: > 75%

stdin: Fill in the blank: the reported inhibition at 1 µM of `O=C(O)c1ccn(C(=O)N2CCN(Cc3ccc(C(F)(F)F)cc3N3CCN4CCC[C@H]4C3)CC2)n1` is ____.
stdout: > 75%

stdin: Fill in the blank: the reported inhibition at 1 µM of `C[C@@H]1CN(Cc2cc(Cl)cc(C(F)(F)F)c2)CCN1C(=O)n1ccc(C(N)=O)n1` is ____.
stdout: > 75%

stdin: Fill in the blank: the reported inhibition at 1 µM of `CN(Cc1ccccc1C(F)(F)F)[C@@H]1C[C@@H]2CN(C(=O)n3ccc(C(N)=O)n3)C[C@@H]2C1` is ____.
stdout: > 75%

stdin: Fill in the blank: the reported inhibition at 1 µM of CNC(=O)c1ccn(C(=O)N2CC3CN(Cc4ccc(C(F)(F)F)cc4)CC3C2)n1 (stereo not drawn) is ____.
stdout: > 75%

stdin: Fill in the blank: the reported inhibition at 1 µM of `Cc1ccc(C)c(CN2CCC3(CCN(C(=O)n4ccc(C(=O)O)n4)CC3)C2)c1` is ____.
stdout: 0 to 25%

stdin: Fill in the blank: the reported inhibition at 1 µM of `O=C(O)c1ccn(C(=O)N2CCN(Cc3ccc(C(F)(F)F)c(N4C5CCC4COC5)c3)CC2)n1` is ____.
stdout: > 75%

stdin: Fill in the blank: the reported inhibition at 1 µM of `O=C(O)c1ccn(C(=O)N2CCN(Cc3ccc(C(F)(F)F)cc3N3CCC(F)CC3)CC2)n1` is ____.
stdout: > 75%

stdin: Fill in the blank: the reported inhibition at 1 µM of `O=C(O)c1nn(C(=O)N2CCN(Cc3cccc(Oc4cc(C(F)(F)F)ccn4)c3)CC2)cc1C(F)(F)F` is ____.
stdout: > 75%

stdin: Fill in the blank: the reported inhibition at 1 µM of `O=C(O)c1ccn(C(=O)N2CCC3(CCCN3Cc3ccc(C(F)(F)F)cc3N3CCN4CCC[C@H]4C3)CC2)n1` is ____.
stdout: 0 to 25%

stdin: Fill in the blank: the reported inhibition at 1 µM of `C[C@@H]1CN(Cc2ccc(Cl)c(-c3nccs3)c2)CCN1C(=O)n1ccc(C(=O)O)n1` is ____.
stdout: > 75%

stdin: Fill in the blank: the reported inhibition at 1 µM of `O=C(O)c1ccn(C(=O)N2CCC3(CCN(C(=O)c4cc5ccc(C(F)(F)F)cc5s4)C3)CC2)n1` is ____.
stdout: > 75%

stdin: Fill in the blank: the reported inhibition at 1 µM of `CN(Cc1cc(Cl)ccc1C(F)(F)F)CC1CCN(C(=O)n2ccc(C(=O)O)n2)CC1` is ____.
stdout: > 75%

stdin: Fill in the blank: the reported inhibition at 1 µM of `O=C(O)c1ccn(C(=O)N2CCC3(CCN(Cc4cccc(Cl)c4C(F)(F)F)C3)CC2)n1` is ____.
stdout: > 75%

stdin: Fill in the blank: the reported inhibition at 1 µM of `O=C(O)c1ccn(C(=O)N2C[C@H]3C[C@@H](NCc4ccc(Oc5ccc(Cl)cc5)cc4)C[C@H]3C2)n1` is ____.
stdout: 0 to 25%

stdin: Fill in the blank: the reported inhibition at 1 µM of O=C(O)c1ccn(C(=O)N2CC3CN(Cc4cccc(OC(F)(F)F)c4)CC3C2)n1 (stereo not drawn) is ____.
stdout: 50 to 75%

stdin: Fill in the blank: the reported inhibition at 1 µM of `CNC(=O)c1ccn(C(=O)N2C[C@H]3C[C@@H](N(C)Cc4ccc(C(F)(F)F)cc4)C[C@H]3C2)n1` is ____.
stdout: > 75%

stdin: Fill in the blank: the reported inhibition at 1 µM of `C[C@@H]1CN(Cc2cccc(OCC(C)(C)O)c2Cl)CCN1C(=O)n1ccc(C(N)=O)n1` is ____.
stdout: > 75%

stdin: Fill in the blank: the reported inhibition at 1 µM of `Cc1ccc(Oc2cccc(CN3CCN(C(=O)n4ccc(C(=O)O)n4)CC3)c2)cc1` is ____.
stdout: > 75%

stdin: Fill in the blank: the reported inhibition at 1 µM of `O=C(O)c1ccn(C(=O)N2CCC3(CCCN3Cc3ccc(C(F)(F)F)cc3-c3nnn[nH]3)CC2)n1` is ____.
stdout: 0 to 25%

###

// inhibition at 1 µM lookup, one value per entry
- target_or_system: MAGL (Mus musculus, UniProt O35678)
- Sequence (O35678 1-303): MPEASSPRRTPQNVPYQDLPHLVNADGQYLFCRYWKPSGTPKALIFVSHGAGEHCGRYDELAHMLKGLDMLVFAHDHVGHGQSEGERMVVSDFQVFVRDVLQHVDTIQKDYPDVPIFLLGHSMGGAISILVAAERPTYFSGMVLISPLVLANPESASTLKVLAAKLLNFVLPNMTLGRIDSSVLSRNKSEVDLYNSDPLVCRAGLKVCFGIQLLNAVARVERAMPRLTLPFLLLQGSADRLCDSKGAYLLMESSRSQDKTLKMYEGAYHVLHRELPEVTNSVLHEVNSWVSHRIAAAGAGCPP
- assay_details: In vitro competitive activity-based protein profiling, MAGL, mouse
- cond: read-out: MAGL % inh. 1 μM (mouse)

Field: example entries. Status: answers known.
{"molecule": "O=C(O)c1ccn(C(=O)N2CCN(Cc3ccc(Cl)c(-c4nccs4)c3)CC2)n1 [Example 274]", "target_or_system": "MAGL (Mus musculus, UniProt O35678)", "inhibition at 1 µM": "> 75%"}
{"molecule": "CN(Cc1cccc(C(F)(F)F)c1)C1(C)CCN(C(=O)n2ccc(C(N)=O)n2)CC1 [Example 258]", "target_or_system": "MAGL (Mus musculus, UniProt O35678)", "inhibition at 1 µM": "> 75%"}
{"molecule": "O=C(O)c1nn(C(=O)N2CCC3(CCN(Cc4ccc(N5CCCC5)cc4C(F)(F)F)C3)CC2)cc1C(F)(F)F [Example 150]", "target_or_system": "MAGL (Mus musculus, UniProt O35678)", "inhibition at 1 µM": "25 to 50%"}

Please turn your attention to the following entry.
stdin: Fill in the blank: the reported inhibition at 1 µM of O=C(O)c1ccn(C(=O)N2CCC3(CCN(C(=O)c4cc(Cl)ccc4C(F)(F)F)C3)CC2)n1 [Example 366] is ____.
stdout: 0 to 25%

###

- target_or_system: FAAH (Mus musculus, UniProt O08914)
- Sequence (O08914 whole entry): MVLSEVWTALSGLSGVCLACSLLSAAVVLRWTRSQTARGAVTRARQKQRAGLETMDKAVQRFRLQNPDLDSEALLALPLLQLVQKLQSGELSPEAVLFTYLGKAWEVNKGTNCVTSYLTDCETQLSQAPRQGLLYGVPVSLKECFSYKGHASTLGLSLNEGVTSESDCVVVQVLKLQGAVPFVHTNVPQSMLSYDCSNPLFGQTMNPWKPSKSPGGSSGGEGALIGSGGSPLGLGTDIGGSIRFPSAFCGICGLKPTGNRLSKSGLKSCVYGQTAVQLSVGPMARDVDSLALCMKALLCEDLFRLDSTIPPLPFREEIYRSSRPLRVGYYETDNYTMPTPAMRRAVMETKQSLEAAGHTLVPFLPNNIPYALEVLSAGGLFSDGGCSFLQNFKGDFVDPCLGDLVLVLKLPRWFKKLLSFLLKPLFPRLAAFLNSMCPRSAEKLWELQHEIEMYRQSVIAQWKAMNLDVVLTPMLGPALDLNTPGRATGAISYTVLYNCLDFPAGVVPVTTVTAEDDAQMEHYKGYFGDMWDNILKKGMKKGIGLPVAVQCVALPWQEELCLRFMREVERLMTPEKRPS
- assay_details: In vitro competitive activity-based protein profiling, FAAH, mouse
- cond: read-out: FAAH % inh. 1 μM (mouse)
// inhibition at 1 µM lookup, one value per entry

{"molecule": "O=C(O)c1ccn(C(=O)N2CCN(Cc3ccc(C(F)(F)F)c(N4CC5COCC5C4)c3)CC2)n1 (stereo not shown) [Example 454]", "property": "inhibition at 1 µM", "result": "0 to 25%"}
{"molecule": "O=C(O)c1ccn(C(=O)N2CCC3(CCN(Cc4cc(Cl)cc(N5CCCC5)c4)C3)CC2)n1 [Example 44]", "property": "inhibition at 1 µM", "result": "0 to 25%"}
{"molecule": "O=C(O)c1ccn(C(=O)N2CCN(Cc3cccc(Oc4ncccn4)c3)CC2)n1 [Example 62]", "property": "inhibition at 1 µM", "result": "0 to 25%"}
{"molecule": "Cc1ccc(CN2CCN(C(=O)n3ccc(C(=O)O)n3)CC2)c(-c2nnco2)c1 [Example 66]", "property": "inhibition at 1 µM", "result": "0 to 25%"}
{"molecule": "O=C(O)c1nn(C(=O)N2CCC3(CCN(Cc4cc(Cl)ccc4C(F)(F)F)C3)CC2)cc1Cl [Example 133]", "property": "inhibition at 1 µM", "result": "> 75%"}

stdin: Lab request: please report inhibition at 1 µM under test system FAAH (Mus musculus, UniProt O08914) for NC(=O)c1ccc(CN2CCN(C(=O)n3ccc(C(=O)O)n3)CC2)cc1C(F)(F)F [Example 14]
stdout: 0 to 25%

stdin: Lab request: please report inhibition at 1 µM under test system FAAH (Mus musculus, UniProt O08914) for O=C(O)c1ccn(C(=O)N2CCN(Cc3cccc(Oc4cncnc4)c3)CC2)n1 [Example 65]
stdout: 0 to 25%

stdin: Lab request: please report inhibition at 1 µM under test system FAAH (Mus musculus, UniProt O08914) for O=C(O)c1ccn(C(=O)N2CCN(Cc3ccc(Cl)cc3-c3nnco3)CC2)n1 [Example 67]
stdout: 0 to 25%

stdin: Lab request: please report inhibition at 1 µM under test system FAAH (Mus musculus, UniProt O08914) for C[C@@H]1CCCCN1c1cc(C(F)(F)F)ccc1CN1CCN(C(=O)n2ccc(C(=O)O)n2)CC1 [Example 103]
stdout: 0 to 25%

stdin: Lab request: please report inhibition at 1 µM under test system FAAH (Mus musculus, UniProt O08914) for CN(Cc1ccc(C(F)(F)F)cc1-c1nccs1)C1(C)CCN(C(=O)n2ccc(C(=O)O)n2)CC1 [Example 10]
stdout: 0 to 25%

stdin: Lab request: please report inhibition at 1 µM under test system FAAH (Mus musculus, UniProt O08914) for NC(=O)c1ccn(C(=O)N2CCN(Cc3ccc(N4CCOCC4)cc3Cl)CC2)n1 [Example 165]
stdout: 50 to 75%

stdin: Lab request: please report inhibition at 1 µM under test system FAAH (Mus musculus, UniProt O08914) for O=C(O)c1ccn(C(=O)N2C[C@H]3C[C@H](OCc4ccc(Oc5ccc(Cl)cc5)cc4)C[C@H]3C2)n1 [Example 55]
stdout: > 75%

stdin: Lab request: please report inhibition at 1 µM under test system FAAH (Mus musculus, UniProt O08914) for Cc1cn(C(=O)N2CCC3(CC2)CN(Cc2cc(Cl)ccc2C(F)(F)F)C3)nc1C(=O)O [Example 131]
stdout: 0 to 25%

stdin: Lab request: please report inhibition at 1 µM under test system FAAH (Mus musculus, UniProt O08914) for O=C(O)c1ccn(C(=O)N2CCC3(CCN(Cc4ccc(C(F)(F)F)cc4N4CCC(F)CC4)CC3)C2)n1 [Example 186]
stdout: 0 to 25%

stdin: Lab request: please report inhibition at 1 µM under test system FAAH (Mus musculus, UniProt O08914) for O=C(O)c1ccn(C(=O)N2CCC3(CCCN3Cc3ccc(C(F)(F)F)cc3N3CCCC3)CC2)n1 [Example 93]
stdout: 0 to 25%

stdin: Lab request: please report inhibition at 1 µM under test system FAAH (Mus musculus, UniProt O08914) for Cc1cc(CO[C@H]2C[C@@H]3CN(C(=O)n4ccc(C(=O)O)n4)C[C@@H]3C2)ccc1C(F)(F)F [Example 172]
stdout: 50 to 75%

stdin: Lab request: please report inhibition at 1 µM under test system FAAH (Mus musculus, UniProt O08914) for O=C(O)c1ccn(C(=O)N2CCC3(CCN(Cc4ccc(C(F)(F)F)c(Cl)c4)C3)CC2)n1 [Example 78]
stdout: 0 to 25%

stdin: Lab request: please report inhibition at 1 µM under test system FAAH (Mus musculus, UniProt O08914) for NC(=O)c1ccn(C(=O)N2CC3CN(Cc4cc(Cl)ccc4Cl)CC3C2)n1 (stereo not shown) [Example 202]
stdout: > 75%

stdin: Lab request: please report inhibition at 1 µM under test system FAAH (Mus musculus, UniProt O08914) for O=C(O)c1ccn(C(=O)N2CCN(Cc3ccc(C(F)(F)F)cc3N3CCC(O)CC3)CC2)n1 [Example 120]
stdout: 0 to 25%

stdin: Lab request: please report inhibition at 1 µM under test system FAAH (Mus musculus, UniProt O08914) for O=C(O)c1ccn(C(=O)N2CC3CN(Cc4cccc(C(F)(F)F)c4)CC3C2)n1 (stereo not shown) [Example 122]
stdout: 50 to 75%

stdin: Lab request: please report inhibition at 1 µM under test system FAAH (Mus musculus, UniProt O08914) for CC(=O)NC1CCN(c2cc(C(F)(F)F)ccc2CN2CCN(C(=O)n3ccc(C(=O)O)n3)CC2)CC1 [Example 119]
stdout: 0 to 25%

stdin: Lab request: please report inhibition at 1 µM under test system FAAH (Mus musculus, UniProt O08914) for Cc1cc(-c2ccccc2)ccc1CN1CCN(C(=O)n2ccc(C(=O)O)n2)C(C)C1 (stereo not shown) [Example 89]
stdout: > 75%

stdin: Lab request: please report inhibition at 1 µM under test system FAAH (Mus musculus, UniProt O08914) for C#Cc1ccc(CN2CCN(C(=O)n3ccc(C(N)=O)n3)CC2)cc1 [Example 144]
stdout: > 75%
